Molecular target: PptT (Mycobacterium tuberculosis, UniProt O33336)
Sequence (O33336 whole entry): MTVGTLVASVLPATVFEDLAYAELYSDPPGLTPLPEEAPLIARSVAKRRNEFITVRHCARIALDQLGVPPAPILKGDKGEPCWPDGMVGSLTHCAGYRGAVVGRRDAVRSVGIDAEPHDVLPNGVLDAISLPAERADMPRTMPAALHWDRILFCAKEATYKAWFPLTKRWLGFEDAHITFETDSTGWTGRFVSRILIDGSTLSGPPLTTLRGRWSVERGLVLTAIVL
Assay: BpsA end-point dose-response assay of PptT inhibition (EC50)
Assay type: biochemical
Conditions: end-point assay, two-fold serial dilution from 40 µM; 0.4 µM PptT, 0.6 µM apo-BpsA; three independent replicates ± standard error
metric: pEC50
One number for each entry, as −log10 of the molar value.

For orientation, consider the following solved cases.
{"compound": "O=Nc1ccc2oc(=O)ccc2c1", "pEC50": 5.08}
{"compound": "CCN(CC)C(=S)SSC(=S)N(CC)CC", "pEC50": 5.22}

Go through the list and state pEC50 for each entry.
1. O=C(O)C1=CC(=C(c2ccc(O)c(C(=O)O)c2)c2ccc(O)c(C(=O)O)c2)C=CC1=O
2. CC(C)(C)c1ccc(S(=O)(=O)/C=C/C#N)cc1
3. Br.CN=c1nc(-c2ccccc2)n(-c2ccccc2)s1 [SCH-202676 hydrobromide]
4. N#C/C(=C\c1ccc(O)c(O)c1)C(=O)c1ccc(O)c(O)c1

OUTPUT:
1. 5.32
2. 5.13
3. 5.23
4. 5.19

Go through the list and state pEC50 for each entry.
1. N#C/C(=C\c1ccc(O)c(O)c1)C(=O)NCCCNC(=O)/C(C#N)=C/c1ccc(O)c(O)c1
2. COc1ccc2c(c1)CC[C@@H]1[C@@H]2CC[C@]2(C)[C@@H](NCCCCCCN3C(=O)C=CC3=O)CC[C@@H]12

OUTPUT:
1. 5.23
2. 5.09

###

What % Activity in PptT Screen was measured for each of the following?
Target: PptT (Mycobacterium tuberculosis, UniProt O33336)
Experiment: LOPAC1280 single-point BpsA (indigoidine) end-point screen for PptT inhibitors
Type: biochemical
Conditions: single concentration (20 µM per Figure S4); 0.4 µM PptT, 0.6 µM apo-BpsA, 10 µM CoA; A590 relative to no-inhibitor positive controls
One number for each entry, in %.

For orientation, consider the following solved cases.
{"compound": "N=C1Sc2ccccc2C2=NCCCN12", "unit-symbol": "%", "% Activity in PptT Screen": 35}
{"compound": "CCCCCCCCCCC/C=C\\C(C)(C)/C=C\\CCCC(=O)O", "unit-symbol": "%", "% Activity in PptT Screen": 49}
{"compound": "O=Nc1ccc2oc(=O)ccc2c1", "unit-symbol": "%", "% Activity in PptT Screen": 12}
{"compound": "CC(C)(C)c1ccc(S(=O)(=O)/C=C/C#N)cc1", "unit-symbol": "%", "% Activity in PptT Screen": 10}
{"compound": "O=C1Nc2ccc(I)cc2/C1=C/c1cc(Br)c(O)c(Br)c1", "unit-symbol": "%", "% Activity in PptT Screen": 43}

Go through the list and state % Activity in PptT Screen for each entry.
1. Br.CN=c1nc(-c2ccccc2)n(-c2ccccc2)s1 [SCH-202676 hydrobromide]
2. N#C/C(=C\c1ccc(O)c(O)c1)C(=O)c1ccc(O)c(O)c1
3. NC(Cc1cc(O)c(O)cc1O)C(=O)O (racemic) [6-Hydroxy-DL-DOPA]

OUTPUT:
0.7
24
26

Go through the list and state % Activity in PptT Screen for each entry.
1. COc1cc(/C=C(\C#N)C(=O)c2ccc(O)c(O)c2)cc(I)c1O
2. N#C/C(=C\c1ccc(O)c(O)c1)C(=O)NCCCNC(=O)/C(C#N)=C/c1ccc(O)c(O)c1
3. COc1ccc2c(c1)CC[C@@H]1[C@@H]2CC[C@]2(C)[C@@H](NCCCCCCN3C(=O)C=CC3=O)CC[C@@H]12

OUTPUT:
40
35
44
